From: patent US20170253607A1

- SYSTEM_UNDER_TEST: HIV-1 PR (Human immunodeficiency virus type 1 group M subtype B, UniProt P04585)
- METHOD: HIV-protease inhibitory activity assay (FRET peptide substrate)
- EXPERIMENTAL_CONTEXT: Test Example 1
1 if IC50 is below 2 nM. -1 if not; exact matches included in -1.

Field: below-cutoff. Rule: recorded IC50 strictly less than 2 nM. Subject: COc1ccc(S(=O)(=O)N(CC(C)C)CC(O)C(Cc2ccc(NCC3CCCC3c3sc4c(c3C(=O)O)CC(C)(C)CC4)cc2)NC(=O)OC2COC3OCCC23)cc1 (centres unmarked) [Compound I-878]
-1

Just wondering, is IC50 of CC(C)CN(CC(O)C(Cc1ccc(OCc2cc(-c3ccc(F)cc3F)ccc2C(=O)O)cc1)NC(=O)OC1COC2(C)OCCC12)S(=O)(=O)c1ccc2ncsc2c1 (centres unmarked) [Compound I-61] below 2 nM?
1

Quick check: does COc1ccc(S(=O)(=O)N(CC(C)C)CC(O)C(Cc2ccc(N3CC(C)C(Oc4ccccc4-c4sc5c(c4C(=O)O)CC(C)(C)CC5)C3)cc2)NC(=O)OC2COC3(C)OCCC23)cc1 (centres unmarked) [Compound I-406] have IC50 under 2 nM?
1

API: query returns whether the compound falls strictly under 2 nM in IC50. Query: CC=Cc1ccc(-c2sc3c(c2C(=O)O)CC(C)(C)CC3)c(CNc2ccc(CC(NC(=O)OC3COC4(C)OCCC34)C(O)CN(CC(C)C)S(=O)(=O)c3ccc(OC)cc3)cc2)c1 (centres unmarked) [Compound I-723]
1

is_below(IC50, 2 nM) for COc1ccc(S(=O)(=O)N(CC(C)C)CC(O)C(Cc2ccc(-c3cc(C(=O)O)cs3)cc2)NC(=O)OC2COC3(C)OCCC23)cc1 (centres unmarked) [Compound I-109] ?
1

Confirm or reject: IC50 of COc1ccc(S(=O)(=O)N(CC(C)C)CC(O)C(Cc2ccc(N3CCC(c4sc5c(c4C(=O)O)CC(C)(C)CC5)CC3)cc2)NC(=O)OC2COC3(C)OCCC23)cc1 (centres unmarked) [Compound I-227] lies strictly below 2 nM
-1

Say whether its IC50 is strictly beneath 2 nM. Entry: COc1ccc(S(=O)(=O)N(CC(C)C)CC(O)C(Cc2ccc(OCCNC(=O)C(=NO)c3cc(O)cc(Cl)c3)cc2)NC(=O)OC2COC3(C)OCCC23)cc1 (centres unmarked) [Compound I-67]
1

Strictly below 2 nM in IC50? COc1ccc(S(=O)(=O)N(CC(C)C)CC(O)C(Cc2ccc(NCC3CCCC3c3sc4c(c3C(=O)O)CC(C)(C)CC4)cc2)NC(=O)OC2COC3(C)OCCC23)cc1 (centres unmarked) [Compound I-409]
-1

Quick check: does COc1ccc(S(=O)(=O)N(CC(C)C)CC(O)C(Cc2ccc(NCc3ccc(C)c(-c4sc5c(c4C(=O)O)CC(C)(C)CC5)c3)cc2)NC(=O)OC2COC3(C)OCCC23)cc1 (centres unmarked) [Compound I-532] have IC50 under 2 nM?
-1

State whether 2 nM exceeds IC50 recorded for COc1ccc(S(=O)(=O)N(CC(C)C)CC(O)C(Cc2ccc(OC3CCN(c4ccc(C#N)cc4-c4sc5c(c4C(=O)O)CC(C)(C)CC5)C3)cc2)NC(=O)OC2COC3(C)OCCC23)cc1 (centres unmarked) [Compound I-200] .
-1

Just wondering, is IC50 of COc1ccc(S(=O)(=O)N(CC(C)C)CC(O)C(Cc2ccc(N(C)C3Cc4cccc(-c5sc6c(c5C(=O)O)CC(C)(C)CC6)c4C3)cc2)NC(=O)OC2COC3(C)OCCC23)cc1 (centres unmarked) [Compound I-404] below 2 nM?
1

IC50 under 2 nM? Item: COc1ccc(S(=O)(=O)N(CC(C)C)CC(O)C(Cc2ccc(OCC3CN(c4ccc(C#N)cc4-c4sc5c(c4C(=O)O)CC(C)(C)CC5)C3)cc2)NC(=O)OC2COC3(C)OCCC23)cc1 (centres unmarked) [Compound I-329]
-1

Does COc1ccc(S(=O)(=O)N(CC(C)C)CC(O)C(Cc2ccc(NCc3ccccc3-n3nc4c(c3C(=O)O)CC3(CCCC3)CC4)cc2)NC(=O)OC2COC3(C)OCCC23)cc1 (centres unmarked) [Compound I-38] have IC50 strictly under 2 nM?
-1

A record lists COc1ccc(S(=O)(=O)N(CC(C)C)CC(O)C(Cc2ccc(NCc3cccc(-c4sc5c(c4C(=O)O)CC(C)(C)CC5)c3F)cc2)NC(=O)OC2COC3(C)OCCC23)cc1 (centres unmarked) [Compound I-543] . Is its IC50 below 2 nM?
-1

Please indicate whether the reported IC50 of COc1ccc(S(=O)(=O)N(CC(C)C)CC(O)C(Cc2ccc(NCc3cc4c(cc3-c3sc5c(c3C(=O)O)CC(C)(C)CC5)OCC(=O)N4)cc2)NC(=O)OC2COC3(C)OCCC23)cc1 (centres unmarked) [Compound I-754] is strictly below 2 nM.
-1

Confirm or reject: IC50 of COc1ccc(S(=O)(=O)N(CC(C)C)CC(O)C(Cc2ccc(NCc3cc(Oc4cccnc4)ccc3-c3sc4c(c3C(=O)O)CC(C)(C)CC4)cc2)NC(=O)OC2COC3(C)OCCC23)cc1 (centres unmarked) [Compound I-688] lies strictly below 2 nM
-1

Dear colleague, could you confirm whether IC50 of COc1ccc(S(=O)(=O)N(CC(C)C)CC(O)C(Cc2ccc(NCc3ccccc3C(=O)Nc3sc4c(c3C(=O)O)CC(C)(C)CC4)cc2)NC(=O)OC2COC3(C)OCCC23)cc1 (centres unmarked) [Compound I-397] falls below 2 nM? Thanks.
-1

Identify whether the compound COc1ccc(S(=O)(=O)N(CC(C)C)CC(O)C(Cc2ccc(OCc3ccccc3-n3nc(C(=O)O)c4c3CCC(C)(C)C4)cc2)NC(=O)OC2COC3OCCC23)cc1 (centres unmarked) [Compound I-837] records IC50 below 2 nM.
1

Here's an entry: COc1ccc(S(=O)(=O)N(CC(C)C)CC(O)C(Cc2ccc(N3Cc4nc5ccccc5cc4C3=O)cc2)NC(=O)OC2COC3OCCC23)cc1 (centres unmarked) [Compound I-888] . Is its IC50 below 2 nM?
-1
